Quick reference: growth AUC normalised to DMSO control of the listed items.
- System: Salmonella enterica typhimurium
- Assay: growth AUC normalised to DMSO control (fraction of control); higher = less growth inhibition, active = hit call of the paper
- Settings: 20 µM
Counter-ions that a name gives are not always drawn.

Compound	Measured target	growth AUC normalised to DMSO control
O=C(O)c1cn(C2CC2)c2cc(N3CCNCC3)c(F)cc2c1=O [Ciprofloxacin hydrochloride monohydrate]	Salmonella enterica typhimurium	0.00833 (active)
N[C@@H](Cc1cc(I)c(Oc2cc(I)c(O)c(I)c2)c(I)c1)C(=O)O	Salmonella enterica typhimurium	1.01 (inactive)
COCCOC(=O)C1=C(C)NC(C)=C(C(=O)OC(C)C)C1c1cccc([N+](=O)[O-])c1 (stereo not drawn)	Salmonella enterica typhimurium	0.984 (inactive)
O=C1CCc2cc(OCCCCc3nnnn3C3CCCCC3)ccc2N1	Salmonella enterica typhimurium	0.985 (inactive)
Clc1ccc(Cn2c(CN3CCCC3)nc3ccccc32)cc1 [Clemizole hydrochloride]	Salmonella enterica typhimurium	0.98 (inactive)
CS(=O)(=O)Nc1ccc([N+](=O)[O-])cc1Oc1ccccc1 [Nimesulide]	Salmonella enterica typhimurium	0.985 (inactive)
Cc1cnc(NC(=O)C2=C(O)c3ccccc3S(=O)(=O)N2C)s1	Salmonella enterica typhimurium	1.01 (inactive)
C[C@@H]1CN(c2c(F)c(N)c3c(=O)c(C(=O)O)cn(C4CC4)c3c2F)C[C@H](C)N1	Salmonella enterica typhimurium	0.00775 (active)
C[C@H]1O[C@@H](O[C@H]2[C@@H](O)C[C@H](O[C@H]3[C@@H](O)C[C@H](O[C@H]4CC[C@@]5(C)[C@H](CC[C@@H]6[C@@H]5C[C@@H](O)[C@]5(C)[C@@H](C7=CC(=O)OC7)CC[C@]65O)C4)O[C@@H]3C)O[C@@H]2C)C[C@H](O)[C@@H]1O	Salmonella enterica typhimurium	0.978 (inactive)
CC(C)C(=O)c1c(C(C)C)nn2ccccc12	Salmonella enterica typhimurium	1.01 (inactive)
CCN1CCCC1CNC(=O)c1cc(S(N)(=O)=O)ccc1OC (stereo not drawn) [Sulpiride]	Salmonella enterica typhimurium	0.99 (inactive)
Nc1ccc(S(=O)(=O)Nc2ncccn2)cc1	Salmonella enterica typhimurium	0.989 (inactive)
CCCOc1ccc(C(=O)OCCN(CC)CC)cc1N [Proparacaine hydrochloride]	Salmonella enterica typhimurium	1 (inactive)
CN1CCN(CC(=O)N2c3ccccc3C(=O)Nc3cccnc32)CC1 [Pirenzepine dihydrochloride]	Salmonella enterica typhimurium	0.993 (inactive)
CCN(CC)CCNC(C(=O)OCCC(C)C)c1ccccc1 (stereo not drawn) [Camylofine chlorhydrate]	Salmonella enterica typhimurium	0.992 (inactive)
CC(C(O)c1ccc(O)cc1)N1CCC(Cc2ccccc2)CC1 (stereo not drawn) [Ifenprodil tartrate]	Salmonella enterica typhimurium	1 (inactive)
C#CCN(C)CCCOc1ccc(Cl)cc1Cl [Clorgyline hydrochloride]	Salmonella enterica typhimurium	0.966 (inactive)
CC(C)(C)NC(=O)[C@@H]1C[C@@H]2CCCC[C@@H]2CN1C[C@@H](O)[C@H](Cc1ccccc1)NC(=O)[C@H](CC(N)=O)NC(=O)c1ccc2ccccc2n1 [Saquinavir mesylate]	Salmonella enterica typhimurium	1.01 (inactive)
NC12CC3CC(CC(C3)C1)C2 [Adamantamine fumarate]	Salmonella enterica typhimurium	1.02 (inactive)
C=CCSCC1Nc2cc(Cl)c(S(N)(=O)=O)cc2S(=O)(=O)N1 (stereo not drawn) [Althiazide]	Salmonella enterica typhimurium	1.04 (inactive)
CCN(CC)CCNC(=O)c1cc(Br)c(N)cc1OC [Bromopride]	Salmonella enterica typhimurium	1.01 (inactive)
CC(=O)Oc1cccc2c1C(=O)c1c(OC(C)=O)cc(C(=O)O)cc1C2=O	Salmonella enterica typhimurium	1 (inactive)
C=CC(N)CCC(=O)O (stereo not drawn) [Vigabatrin hydrochloride]	Salmonella enterica typhimurium	1.02 (inactive)
Nc1ccc(/N=N/c2ccccc2)c(N)n1 [Phenazopyridine hydrochloride]	Salmonella enterica typhimurium	0.969 (inactive)
CC(C)NC(=N)NC(=N)Nc1ccc(Cl)cc1 [Proguanil hydrochloride]	Salmonella enterica typhimurium	0.959 (inactive)
Cc1ccc(S(=O)(=O)NC(=O)NN2CCCCCC2)cc1 [Tolazamide]	Salmonella enterica typhimurium	1.02 (inactive)
CCCN[C@H]1CCc2nc(N)sc2C1 [Pramipexole dihydrochloride]	Salmonella enterica typhimurium	0.989 (inactive)
CC(C)(C)NC[C@H](O)c1ccc(O)c(CO)c1 [Levalbuterol hydrochloride]	Salmonella enterica typhimurium	0.95 (inactive)
COc1ccc2[nH]c([S+]([O-])Cc3ncc(C)c(OC)c3C)nc2c1 (stereo not drawn)	Salmonella enterica typhimurium	0.958 (inactive)
C[C@]12CCC(=O)C=C1C=C[C@@H]1[C@@H]2CC[C@@]2(C)[C@H]1CC[C@@]21CCC(=O)O1	Salmonella enterica typhimurium	1.01 (inactive)
C[C@]12CC[C@H]3[C@@H](CCC4=CC(=O)CC[C@@]43C)[C@@H]1CC[C@@H]2C(=O)CO	Salmonella enterica typhimurium	1 (inactive)
CN1CCN2c3ncccc3Cc3ccccc3C2C1 (stereo not drawn)	Salmonella enterica typhimurium	0.995 (inactive)
Cc1onc(-c2ccccc2Cl)c1C(=O)N[C@@H]1C(=O)N2[C@@H]1SC(C)(C)[C@@H]2C(=O)O [Cloxacillin sodium salt]	Salmonella enterica typhimurium	1.01 (inactive)

###

- Tested on: P. vulgatus RND KO
- Assay: growth AUC normalised to DMSO control (median) (fraction of control); higher = less growth inhibition, active = hit call of the paper
- Settings: 20 µM
Structures can show the parent of a compound that is named as a salt.
Here, each record is paired with measured growth AUC normalised to DMSO control data.

Compound	growth AUC normalised to DMSO control
CCN(CC)CCOC(=O)c1ccc(N)cc1 [Procaine hydrochloride]	1.02
CNCC[C@@H](Oc1cccc2ccccc12)c1cccs1 [(R)-Duloxetine hydrochloride]	1.02
CC(C)(C#N)c1cc(Cn2cncn2)cc(C(C)(C)C#N)c1	1.09
Cc1cc2cc3c(C)cc(=O)oc3c(C)c2o1	1.03
Cn1c(=O)c2c(ncn2C)n(C)c1=O	1.02
Clc1ccccc1CN1CCc2sccc2C1 [Ticlopidine hydrochloride]	0.986
CN(C)CCC(c1ccc(Br)cc1)c1ccccn1 (stereo not given) [Brompheniramine maleate]	0.994
Nc1nc(N)nc(-c2cc(Cl)ccc2Cl)n1 [Irsogladine maleate]	0.959
CCc1cc(C(N)=S)ccn1 [Ethionamide]	1
CCC1(c2ccccc2)C(=O)NCNC1=O	1

###

- Test system: P. vulgatus RND KO
- Assay: growth AUC normalised to DMSO control (median) (fraction of control); higher = less growth inhibition, active = hit call of the paper
- Settings: 20 µM
Counter-ions that a name gives are not always drawn.

Compound	growth AUC normalised to DMSO control
CCN(CC)C(C)CN1c2ccccc2Sc2ccccc21 (stereo unspecified) [Ethopropazine hydrochloride]	0.272
CCCCC(=O)N(Cc1ccc(-c2ccccc2-c2nnn[nH]2)cc1)[C@H](C(=O)O)C(C)C	1.04
OCC(O)CN1CCN(c2ccccc2)CC1 (stereo unspecified)	1.05
CC(=O)OCC(=O)[C@@]1(O)CC[C@H]2[C@@H]3CCC4=CC(=O)C=C[C@]4(C)[C@@]3(Cl)[C@@H](Cl)C[C@@]21C [Dichlorisone acetate]	0.976
O=C(c1cc(O)c(O)c(O)c1)c1ccc(O)c(O)c1O	0.975
CC(=O)O[C@@]12CO[C@@H]1C[C@H](O)[C@@]1(C)C(=O)[C@H](O)C3=C(C)[C@@H](OC(=O)[C@H](O)[C@@H](NC(=O)OC(C)(C)C)c4ccccc4)C[C@@](O)([C@@H](OC(=O)c4ccccc4)[C@H]21)C3(C)C	0.904
COC(=O)Nc1nc2cc(Sc3ccccc3)ccc2[nH]1	1.01
CC(C)(O)c1ccccc1CC[C@@H](SCC1(CC(=O)O)CC1)c1cccc(/C=C/c2ccc3ccc(Cl)cc3n2)c1	0.911
CC[N+](CC)(CC)CCOc1cccc(OCC[N+](CC)(CC)CC)c1OCC[N+](CC)(CC)CC [Gallamine triethiodide]	1.02
CC(=O)CC(c1ccccc1)c1c(O)c2ccccc2oc1=O (stereo unspecified)	1
c1ccc([C@H]2CN3CCSC3=N2)cc1 [Levamisole hydrochloride]	1.03
CC[C@H]1OC(=O)[C@H](C)[C@@H](O[C@H]2C[C@@](C)(OC)[C@@H](O)[C@H](C)O2)[C@H](C)[C@@H](O[C@@H]2O[C@H](C)C[C@H](N(C)C)[C@H]2O)[C@](C)(O)C[C@@H](C)CN(C)[C@H](C)[C@@H](O)[C@]1(C)O	0.0189
CN(C)CCOC1=Cc2ccccc2Sc2ccc(Cl)cc21 [Zotepine]	0.935
O=C(Nc1ccc([N+](=O)[O-])cc1Cl)c1cc(Cl)ccc1O [Niclosamide]	0.0144
CC1=C(C(=O)O)N2C(=O)[C@@H](NC(=O)[C@H](N)c3ccc(O)cc3)[C@H]2SC1	1.01
C[N+]1(CCCCC[N+]2(C)CCCC2)CCCC1 [Pentolinium bitartrate]	1

###

- Tested on: P. vulgatus WT
- Assay: growth AUC normalised to DMSO control (median) (fraction of control); higher = less growth inhibition, active = hit call of the paper
- Settings: 20 µM
Structures can show the parent of a compound that is named as a salt.
Labels: 1 = active, -1 = inactive

Compound	Assigned class
CCCCOc1ccc(OCCCN2CCOCC2)cc1 [Pramoxine hydrochloride]	-1
CC(CN1c2ccccc2Sc2ccccc21)N(C)C (stereo not given) [Promethazine hydrochloride]	-1
C[n+]1ccccc1/C=N/O [Pralidoxime chloride]	-1
COCCCOc1cc(C[C@@H](C[C@H](N)[C@@H](O)C[C@H](C(=O)NCC(C)(C)C(N)=O)C(C)C)C(C)C)ccc1OC [Aliskiren hemifumarate]	-1
Cc1ncc(C[n+]2csc(CCO)c2C)c(N)n1 [Thiamine hydrochloride]	-1
Cc1cc(O)c(C(=O)N[C@@H](C(=O)N[C@@H]2C(=O)N3C(C(=O)O)=C(CSc4nnnn4C)CS[C@H]23)c2ccc(O)cc2)cn1 [Cefpiramide]	1
Nc1nc(Cl)nc2c1ncn2[C@H]1C[C@H](O)[C@@H](CO)O1	-1
Cc1ccc(NC(=O)c2ccc(CN3CCN(C)CC3)cc2)cc1Nc1nccc(-c2cccnc2)n1	-1
COC(=O)C1=C(C)NC(C)=C(C(=O)OCC(C)C)C1c1ccccc1[N+](=O)[O-] (stereo not given)	-1
O=c1n(CCCN2CCN(c3cccc(Cl)c3)CC2)nc2ccccn12 [Trazodone hydrochloride]	-1
CC(CCc1ccccc1)NCC(O)c1ccc(O)c(C(N)=O)c1 (stereo not given) [Labetalol hydrochloride]	-1
Cc1c(C(=O)NN2CCCCC2)nn(-c2ccc(Cl)cc2Cl)c1-c1ccc(Cl)cc1	-1
CC(C)C(=O)OCC(=O)[C@@]12O[C@H](C3CCCCC3)O[C@@H]1C[C@H]1[C@@H]3CCC4=CC(=O)C=C[C@]4(C)[C@H]3[C@@H](O)C[C@@]12C [Ciclesonide]	-1
CC(=O)c1ccc(S(=O)(=O)NC(=O)NC2CCCCC2)cc1 [Acetohexamide]	-1
C[C@@H]1C[C@H]2[C@@H]3C[C@H](F)C4=CC(=O)C=C[C@]4(C)[C@@]3(Cl)[C@@H](O)C[C@]2(C)[C@H]1C(=O)COC(=O)C(C)(C)C [Clocortolone pivalate]	1
